- Target Of Assay: Bromodomain-containing protein 2 (Homo sapiens)
- Sequence (P25440 whole entry, the tested form may be a part, canonical isoform): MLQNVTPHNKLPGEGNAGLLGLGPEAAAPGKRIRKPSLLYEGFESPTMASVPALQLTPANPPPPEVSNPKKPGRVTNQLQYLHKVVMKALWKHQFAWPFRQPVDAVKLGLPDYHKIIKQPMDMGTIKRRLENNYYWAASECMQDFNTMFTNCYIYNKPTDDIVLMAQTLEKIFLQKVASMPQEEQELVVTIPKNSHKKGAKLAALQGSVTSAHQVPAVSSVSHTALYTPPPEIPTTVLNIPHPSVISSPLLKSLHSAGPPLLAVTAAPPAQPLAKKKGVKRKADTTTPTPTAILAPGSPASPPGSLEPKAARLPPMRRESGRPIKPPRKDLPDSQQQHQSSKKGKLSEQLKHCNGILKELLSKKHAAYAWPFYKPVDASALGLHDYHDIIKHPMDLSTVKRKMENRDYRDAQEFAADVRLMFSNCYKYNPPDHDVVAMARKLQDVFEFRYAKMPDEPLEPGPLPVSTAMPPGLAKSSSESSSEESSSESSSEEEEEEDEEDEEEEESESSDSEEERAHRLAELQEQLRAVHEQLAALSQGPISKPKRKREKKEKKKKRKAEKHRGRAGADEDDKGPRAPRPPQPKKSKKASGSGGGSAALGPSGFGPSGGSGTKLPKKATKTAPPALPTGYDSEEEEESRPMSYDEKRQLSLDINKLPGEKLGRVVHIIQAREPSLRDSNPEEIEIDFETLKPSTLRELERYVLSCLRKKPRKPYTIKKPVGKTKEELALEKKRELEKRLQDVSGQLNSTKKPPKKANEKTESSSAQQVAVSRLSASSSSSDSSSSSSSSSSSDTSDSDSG
- Measurement Protocol: Displacement of biotinylated acetylated peptide from recombinant human partial length BRD2 isoform 1 bromodomain 1/2 (K71 to D455 residues) expressed in Escherichia coli BL21 measured after 1 hr by Bromoscan method
Reported Property: Kd (nM)
Kindly answer with a numeric value in nM, unit omitted.

### Prompt Kd for CN(C)CCN1CCN(c2nc(NCc3cccc(Cl)c3)c3cc(-c4ccc(=O)n(C)c4)ccc3n2)CC1 ?
### Response 27

* * *

- Tested on: MV4-11
- Measurement Protocol: Cytotoxicity against human MV411 cells after 72 hrs by CellTiter-Glo assay
- Assay type: functional, cell-based
- Measurement Conditions: MV4-11, 72 h
Reported Property: pIC50
Note on pIC50: it is the negative log10 of concentration, concentration in mol/L.

[
  {
    "Molecule": "CN(C)CCN1CCN(c2nc(NCc3cccc(Cl)c3)c3cc(-c4ccnc(O)c4)ccc3n2)CC1",
    "Observed Value": 4.76
  },
  {
    "Molecule": "Cc1noc(C)c1-c1ccc2nc(N3CCN(CCO)CC3)nc(NCc3cccc(Cl)c3)c2c1",
    "Observed Value": 5.78
  },
  {
    "Molecule": "Cc1noc(C)c1-c1ccc2nc(-c3ccc(CO)nc3)nc(NCc3cccc(Cl)c3)c2c1",
    "Observed Value": 5.58
  }
]

### Prompt Fill in: pIC50 of Cc1noc(C)c1-c1ccc2nc(N3CCN(CCN(C)C)CC3)nc(NCc3cccs3)c2c1 is ___
### Response 5.79

### Prompt Further, for Cc1ccc(NC(=O)c2nc(NCc3cccc(Cl)c3)c3cc(-c4c(C)noc4C)ccc3n2)cn1 ?
### Response 5.34

### Prompt Again, but for Cc1noc(C)c1-c1ccc2nc(N3CCN(CCC(C)C)CC3)nc(NCc3cccc(Cl)c3)c2c1
### Response 5.16

### Prompt Now give it for Cc1noc(C)c1-c1ccc2nc(N3CCN(CCN(C)C)CC3)nc(N3CCCCC3c3ccccc3)c2c1 (configuration not stated) too.
### Response 5.29

### Prompt Next entry: Cc1noc(C)c1-c1ccc2nc(-c3cnn(CCC#N)c3)nc(NCc3cccc(Cl)c3)c2c1
### Response 6.02

### Prompt Param item: Cc1noc(C)c1-c1ccc2nc(-c3cnn(CCO)c3)nc(NCc3cccc(Cl)c3)c2c1
### Response 5.78

### Prompt Note, next up: Cc1noc(C)c1-c1ccc2nc(N3CCN(CCN(C)C)CC3)nc(NC(C)c3cccc(Cl)c3)c2c1 (configuration not stated)
### Response 5.36

### Prompt Do the same for Cc1noc(C)c1-c1ccc2nc(N3CCN(CCN(C)C)CC3)nc(N3CCC3c3ccccc3)c2c1 (configuration not stated) please
### Response 5.31

### Prompt Again, but for Cc1noc(C)c1-c1ccc2nc(N3CCN(CCN(C)C)CC3)nc(N(C)Cc3cccc(Cl)c3)c2c1
### Response 5.26

* * *

- Target Of Assay: Bromodomain testis-specific protein (Homo sapiens, UniProt Q58F21)
- Measurement Protocol: Displacement of biotinylated acetylated peptide from recombinant human partial length BRDT isoform b bromodomain 2 (K250 to E382 residues) expressed in Escherichia coli BL21 measured after 1 hr by Bromoscan method
Reported Property: pKd
Would you please state pKd, meaning minus log10 of the concentration in mol/L, as a bare number?

### Prompt Given CN(C)CCN1CCN(c2nc(NCc3cccc(Cl)c3)c3cc(-c4ccc(=O)n(C)c4)ccc3n2)CC1 , state its recorded pKd.
### Response 6.80
